# Tested on: SK-BR-3 human breast adenocarcinoma
# assay-remarks: SRB cell proliferation (cytotoxicity) assay, SK-BR-3
# condition-label: SK-BR-3
experimental-endpoint: TGI: Concentration for total inhibition of cell growth
Just the number plus its unit, please.

[[record]]
molecule = "AGCTGACACAGCAGGTTGGTGCCCAAAAGAGCCAATCCACGACGACACCCCAAAAACCATATCACGAATACCCGAGTCGAGCAATCTCGAAAT (nucleic acid, chemistry not given here) DNA: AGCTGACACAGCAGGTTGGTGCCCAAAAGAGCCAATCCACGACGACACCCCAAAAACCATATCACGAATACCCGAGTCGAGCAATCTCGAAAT"
reported_measurement = "49.017 µM"


Tell me TGI: Concentration for total inhibition of cell growth reported for CTGACACAGCAGGTTGGTGCCAACTAACACCATAAGAATACCCCGCTCCAAATAAGCCCACACGTAAACCCGAGTCGAGCAATCTCGAAAT (nucleic acid, chemistry not given here, DNA aptamer that recognizes human galectin-1) DNA: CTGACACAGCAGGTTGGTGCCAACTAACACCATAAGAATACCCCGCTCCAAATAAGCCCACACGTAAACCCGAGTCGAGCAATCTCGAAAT 37.515 µM

Supply TGI: Concentration for total inhibition of cell growth value. Item: AGCTGACACAGCAGGTTGGTGCCAACAAGAAAAGAAACCGTTACAGAAGACACTACAGAATAAGTGAAAAGCCGAGTCGAGCAATCTCGAAAT (nucleic acid, chemistry not given here) DNA: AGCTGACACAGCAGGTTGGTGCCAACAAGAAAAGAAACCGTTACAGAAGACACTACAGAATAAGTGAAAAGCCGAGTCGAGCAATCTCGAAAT 45.137 µM

Return TGI: Concentration for total inhibition of cell growth (reported value) for this molecule: AGCTGACACAGCAGGTTGGTGCGCCCAATACAGGCGCAGTATCTGTCCGTGGGCCGGGTAAAAGTTACGGACCGAGTCGAGCAATCTCGAAAT (nucleic acid, chemistry not given here) DNA: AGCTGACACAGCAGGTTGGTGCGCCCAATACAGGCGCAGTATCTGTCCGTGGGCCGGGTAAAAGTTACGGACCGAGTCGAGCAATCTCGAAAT 37.529 µM
